Ref: PubChem BioAssay AID2685

Please go through the items and note down their lipid storage change, negative = inhibition.
- Test details: qHTS Assay for Lipid Storage Modulators in Drosophila S3 Cells; note: % is set by controls: 0 for no effect and ±100 for the full control effect
- Experimental context: BODIPY lipid droplet fluorescence, 18-24 h, cells fed with added oleic acid; series mostly up to 46.1 µM
Out of some 320,000 compounds screened, about 2,100 (0.66%) were called active. Not shown: some 53% with an inconclusive outcome. The list comes from a sample in which actives are over-represented; it also holds close analogues and randomly drawn compounds.

Examples from the recorded data:
CC(C)c1ccc(S(=O)(=O)N2CCN(C(=O)C3CC3C)CC2)cc1 (configuration not stated)
9.88% [at 0.0737 µM] (inactive)
CN(C(=O)C1CCOC1)c1nnc(-c2cnccn2)s1 (configuration not stated)
-5.36% [at 9.22 µM] (inactive)
CCC(=O)c1ccc(OCC(=O)NNC(=O)c2cc(C)oc2C)cc1
-5.26% [at 0.0737 µM] (inactive)
Cc1cccc(C)c1NC(=O)CN(C)C(=O)c1cccc(S(=O)(=O)N2CCN(C)CC2)c1
-25% [at 0.0737 µM] (inactive)
CC(=O)Nc1ccc(-c2csc(NC(=O)C3=COCCO3)n2)cc1
-16.5% [at 0.0737 µM] (inactive)
CCCCCN(C(=O)CCC(=O)OC(C)C(=O)NCc1ccccc1)c1c(N)n(CCCC)c(=O)[nH]c1=O (configuration not stated)
4.2% [at 0.0737 µM] (inactive)

Please go through the list and note lipid storage change, negative = inhibition for each compound.
1. COc1ccc(C(C)=O)cc1COc1ccc(F)cc1
2. CCCN(C(=O)C1=COCCO1)c1c(N)n(Cc2ccccc2)c(=O)[nH]c1=O
3. COc1ccc(N(CC(=O)NCc2ccccc2OC)S(=O)(=O)c2c(C)nn(C)c2C)cc1
4. COc1cc(/C=C2\SC(=S)N(CCC(=O)Nc3ccccc3)C2=O)cc(OC)c1OC
5. CNC(=S)NNC(=O)c1ccc(=O)n(Cc2ccc(Cl)cc2Cl)c1
6. CCCCNC(=O)C1CCN(S(=O)(=O)c2c(C)noc2/C=C\c2ccc(OC)cc2)CC1
7. Cn1c(=O)oc2cc(S(=O)(=O)Nc3ccccc3)ccc21
8. COc1cccc2sc(NNC(=O)COc3ccccc3)nc12

// result
1. 21.6% [at 9.22 µM] (inactive)
2. 5.43% [at 0.0737 µM] (inactive)
3. 22.2% [at 9.22 µM] (inactive)
4. -5.12% [at 9.22 µM] (inactive)
5. 14.6% [at 9.22 µM] (inactive)
6. -15.3% [at 9.22 µM] (inactive)
7. -3.68% [at 9.22 µM] (inactive)
8. -1.29% [at 9.22 µM] (inactive)

Please go through the list and note lipid storage change, negative = inhibition for each compound.
1. Cc1ccsc1C(=O)N(C)CC(=O)Nc1ccccc1Br
2. Cc1ccc(C2=NC3(CCCC3)NC2=S)cc1
3. Cc1cccn2c(=O)nc(SCC(=O)NCc3ccccc3)nc12
4. N#Cc1nc(COc2ccc(Br)cc2)oc1N1CCCCCC1
5. Cc1csc(NC(=O)CSC2=NS(=O)(=O)c3cc(F)ccc3N2)n1
6. O=C(Nc1nnc(C2CC2)s1)c1cccc(S(=O)(=O)N2CC(c3ccccc3)CC2=O)c1 (configuration not stated)

// result
15.6% [at 0.0737 µM] (inactive)
6.56% [at 9.22 µM] (inactive)
14.2% [at 0.0737 µM] (inactive)
17.2% [at 9.22 µM] (inactive)
27.8% [at 0.0737 µM] (inactive)
14.3% [at 9.22 µM] (inactive)

Please go through the list and note lipid storage change, negative = inhibition for each compound.
1. CC(=O)NCc1cc(-c2ccc(Cl)cc2)no1
2. COc1ccc(NS(=O)(=O)c2ccc(C)c(C(=O)N(C)Cc3ccc(OC)cc3OC)c2)cc1

// result
0.337% [at 9.22 µM] (inactive)
-11.3% [at 0.0737 µM] (inactive)
